# Tested system: T1, EsCas13d, nuclease-dead (Eubacterium siraeum, UniProt B0MS50, R295A;H300A;R849A;H854A)
# T1 sequence: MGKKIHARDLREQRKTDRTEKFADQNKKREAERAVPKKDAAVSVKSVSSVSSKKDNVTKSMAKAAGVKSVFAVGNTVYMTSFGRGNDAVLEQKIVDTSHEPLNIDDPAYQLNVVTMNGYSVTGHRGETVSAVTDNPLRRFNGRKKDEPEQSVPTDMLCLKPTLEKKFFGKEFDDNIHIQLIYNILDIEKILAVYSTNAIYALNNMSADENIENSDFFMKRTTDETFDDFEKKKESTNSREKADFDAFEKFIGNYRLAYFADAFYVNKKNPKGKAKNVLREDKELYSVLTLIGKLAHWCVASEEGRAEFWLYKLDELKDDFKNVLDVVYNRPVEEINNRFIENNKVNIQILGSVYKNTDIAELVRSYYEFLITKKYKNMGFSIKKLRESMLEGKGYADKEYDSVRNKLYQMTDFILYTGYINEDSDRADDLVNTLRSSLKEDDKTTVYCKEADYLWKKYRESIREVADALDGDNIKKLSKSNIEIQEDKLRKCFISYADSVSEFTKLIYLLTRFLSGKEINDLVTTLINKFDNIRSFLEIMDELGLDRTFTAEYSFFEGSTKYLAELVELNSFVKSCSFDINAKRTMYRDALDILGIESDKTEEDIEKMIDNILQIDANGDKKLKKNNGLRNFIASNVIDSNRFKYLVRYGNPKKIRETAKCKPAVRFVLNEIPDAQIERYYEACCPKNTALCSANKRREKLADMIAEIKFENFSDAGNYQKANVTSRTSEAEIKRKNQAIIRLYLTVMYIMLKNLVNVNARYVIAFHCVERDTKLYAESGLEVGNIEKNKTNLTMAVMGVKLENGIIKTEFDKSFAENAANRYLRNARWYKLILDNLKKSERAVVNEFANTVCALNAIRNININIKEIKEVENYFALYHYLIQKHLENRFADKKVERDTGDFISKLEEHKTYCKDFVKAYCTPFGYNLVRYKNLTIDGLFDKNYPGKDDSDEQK
# Assay info: crRNA (strand 1, pre-loaded); Mg2+; 40 mM Tris-HCl pH 7.5, 150 mM NaCl, 6 mM MgCl2, 1 mM DTT, 0.1% Tween-20, 0.2 mg/ml BSA; 25 C; 10 min per concentration, then washed
# Settings: tags: His6-TwinStrep-SUMO cleaved; N-terminal SNAP kept (SNAP-Surface 488); label: 3' end held by stalled T7 RNA polymerase
Labels assigned by Kd range: low value = under 10 nM, medium value = from 10 nM up to 30 nM, high value = 30 nM and over

Solved entries:
target 2 MT 5'PFS GGG 3'PFS UUA (mixed) RNA 1: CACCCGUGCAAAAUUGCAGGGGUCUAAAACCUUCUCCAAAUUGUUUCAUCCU RNA 2: GGGAAUGGAUCCACAUCUACGAAUUCGGGAGGAUGAAACAAUUUGGAGAAGUUAAGAUCGGAAGAGCACACGU    medium value
target 1 insU 3' of 14,insG 3' of 1 (mixed) RNA 1: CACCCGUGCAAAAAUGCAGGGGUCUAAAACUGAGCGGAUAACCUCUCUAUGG RNA 2: GGGAAUGGAUCCACAUCUACGAAUUCGUACCAUAGAGAUGGUUAUCCGCUCAGCCGAGAUCGGAAGAGCACACGU    high value
target 2 MT 5'PFS CUU 3'PFS ACU (mixed) RNA 1: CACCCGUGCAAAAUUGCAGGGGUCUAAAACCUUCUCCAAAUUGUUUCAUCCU RNA 2: GGGAAUGGAUCCACAUCUACGAAUUCCUUAGGAUGAAACAAUUUGGAGAAGACUAGAUCGGAAGAGCACACGU    low value
target 1 MT 5'PFS UCA 3'PFS CGG (mixed) RNA 1: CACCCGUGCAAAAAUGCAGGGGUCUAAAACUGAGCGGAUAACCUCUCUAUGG RNA 2: GGGAAUGGAUCCACAUCUACGAAUUCUCACCAUAGAGAGGUUAUCCGCUCACGGAGAUCGGAAGAGCACACGU    high value
target 1 insG 3' of 19 (mixed) RNA 1: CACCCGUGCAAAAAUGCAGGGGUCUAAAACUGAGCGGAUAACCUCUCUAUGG RNA 2: GGGAAUGGAUCCACAUCUACGAAUUCGUACCAUGAGAGAGGUUAUCCGCUCACCGAGAUCGGAAGAGCACACGU    high value
target 1 MT 5'PFS UAA 3'PFS UUA (mixed) RNA 1: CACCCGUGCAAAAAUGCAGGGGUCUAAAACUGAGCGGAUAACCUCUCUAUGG RNA 2: GGGAAUGGAUCCACAUCUACGAAUUCUAACCAUAGAGAGGUUAUCCGCUCAUUAAGAUCGGAAGAGCACACGU    medium value
target 1 insC 3' of 15,insA 3' of 12 (mixed) RNA 1: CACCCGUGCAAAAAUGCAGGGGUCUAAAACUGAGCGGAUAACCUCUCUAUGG RNA 2: GGGAAUGGAUCCACAUCUACGAAUUCGUACCAUAGAGCAGGAUUAUCCGCUCACCGAGAUCGGAAGAGCACACGU    high value
target 2 MT 5'PFS GCU 3'PFS CGC (mixed) RNA 1: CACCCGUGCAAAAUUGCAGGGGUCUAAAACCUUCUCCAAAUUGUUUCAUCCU RNA 2: GGGAAUGGAUCCACAUCUACGAAUUCGCUAGGAUGAAACAAUUUGGAGAAGCGCAGAUCGGAAGAGCACACGU    medium value
target 2 MT 5'PFS AUA 3'PFS AAG (mixed) RNA 1: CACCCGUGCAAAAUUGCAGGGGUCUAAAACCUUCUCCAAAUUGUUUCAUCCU RNA 2: GGGAAUGGAUCCACAUCUACGAAUUCAUAAGGAUGAAACAAUUUGGAGAAGAAGAGAUCGGAAGAGCACACGU    low value
target 1 insC 3' of 19,insA 3' of 19 (mixed) RNA 1: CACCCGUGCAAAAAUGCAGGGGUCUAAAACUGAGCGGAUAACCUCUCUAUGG RNA 2: GGGAAUGGAUCCACAUCUACGAAUUCGUACCAUCAAGAGAGGUUAUCCGCUCACCGAGAUCGGAAGAGCACACGU    high value

For target 2 MT 5'PFS AAC 3'PFS CUU (mixed) RNA 1: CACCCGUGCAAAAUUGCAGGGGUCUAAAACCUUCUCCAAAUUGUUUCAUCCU RNA 2: GGGAAUGGAUCCACAUCUACGAAUUCAACAGGAUGAAACAAUUUGGAGAAGCUUAGAUCGGAAGAGCACACGU , which Kd bin applies? low value

Form field 'band' for target 1 MT 5'PFS GCA 3'PFS CGU (mixed) RNA 1: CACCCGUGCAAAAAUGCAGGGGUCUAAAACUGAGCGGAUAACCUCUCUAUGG RNA 2: GGGAAUGGAUCCACAUCUACGAAUUCGCACCAUAGAGAGGUUAUCCGCUCACGUAGAUCGGAAGAGCACACGU medium value

Kindly state the category for this binder: target 1 G13A,C22U (mixed) RNA 1: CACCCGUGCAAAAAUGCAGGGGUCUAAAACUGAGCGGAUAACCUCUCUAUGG RNA 2: GGGAAUGGAUCCACAUCUACGAAUUCGUAUCAUAGAGAAGUUAUCCGCUCACCGAGAUCGGAAGAGCACACGU medium value
